Reported Ki values for the following compounds.
Target: DLK (Homo sapiens (Human))
Test: DLK TR-FRET Inhibition Assay
Details: N-terminally GST-tagged DLK (catalytic domain amino acid 1-520), MKK4 K131M substrate, 30 μM ATP; read-out: DLK HTRF Ki
A number alone suffices; assume nM.

Nc1ncc(-c2nc(N3CC4CC3C4)c3nc4n(c3n2)CCO[C@H]4C(F)(F)F)cn1 (single isomer, unassigned) [Example 98] | 93.8

Briefly, Ki measured for CCc1n[nH]c2ncc(-c3nc(N4CC5CC4C5)c4nc5n(c4n3)CCOC5(C)C)cc12 [Example 20] : 161

Briefly, Ki measured for CC1(C)OCCn2c1nc1c(N3CC(C#N)C3)nc(-c3cnc4[nH]cc(Cl)c4c3)nc12 [Example 110] : 1.25

Briefly, Ki measured for CC1(c2nc(-c3cnc(N)nc3)nc3c2nc2n3CCOC2(C)C)CC1 [Example 95] : 476

Briefly, Ki measured for CC1(C)OCCn2c1nc1c(N3CCC(F)(F)C3)nc(-c3cnc(N)c(OCC4CC4)c3)nc12 [Example 77] : 588

Briefly, Ki measured for CC1(C)OCCn2c1nc1c(N3CC4CC3C4)nc(-c3cnc4[nH]cnc4c3)nc12 [Example 146] : 32.2

====

Target: DLK (Homo sapiens (Human))
Test: DLK TR-FRET Inhibition Assay
Conditions: N-terminally GST-tagged DLK (catalytic domain amino acid 1-520), MKK4 K131M substrate, 30 μM ATP; read-out: DLK HTRF Ki
Entries whose Ki is below 0.1 µM take MET; entries at or above 0.1 µM take NOT MET.

COC1CN(c2nc(-c3cnc(N)c(OC(F)F)c3)nc3c2nc2n3CCCOC2)C1 | NOT MET

q: Below 0.1 µM on Ki? Entry CC(C)Oc1cc(-c2nc(N3CC(F)(F)C3)c3nc4n(c3n2)CCOC4(C)C)cnc1N
a: NOT MET

====

Target: DLK (Homo sapiens (Human), UniProt Q12852)
Sequence (Q12852 1-520): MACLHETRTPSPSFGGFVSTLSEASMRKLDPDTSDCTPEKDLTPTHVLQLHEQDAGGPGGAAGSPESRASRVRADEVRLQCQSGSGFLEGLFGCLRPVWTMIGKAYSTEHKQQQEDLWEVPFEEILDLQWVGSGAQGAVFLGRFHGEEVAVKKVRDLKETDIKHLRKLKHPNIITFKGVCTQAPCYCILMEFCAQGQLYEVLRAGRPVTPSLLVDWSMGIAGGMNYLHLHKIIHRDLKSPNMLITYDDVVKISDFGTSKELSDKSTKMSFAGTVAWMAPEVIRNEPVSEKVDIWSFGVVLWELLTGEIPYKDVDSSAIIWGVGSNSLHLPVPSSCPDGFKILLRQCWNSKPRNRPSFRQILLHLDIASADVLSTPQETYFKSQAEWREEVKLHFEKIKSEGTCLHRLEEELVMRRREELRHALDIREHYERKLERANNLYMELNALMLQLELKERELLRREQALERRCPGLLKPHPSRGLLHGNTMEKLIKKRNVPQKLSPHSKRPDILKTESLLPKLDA
Assay: DLK TR-FRET Inhibition Assay
Type: biochemical
Details: N-terminally GST-tagged DLK (catalytic domain amino acid 1-520), MKK4 K131M substrate, 30 μM ATP; read-out: DLK HTRF Ki
Reported Ki values for the following compounds.
A number alone suffices; assume nM.

Worked cases, answers included:
CC1(C)OCCn2c1nc1c(N3CC4CC3C4)nc(-c3cnc(N)c(C4CC4)c3)nc12 | 621
CCN(c1nc(-c2cnc(N)nc2)nc2c1nc1n2CCOC1(C)C)C1CC1 [Example 61] | 250
CC1(C)OCCCn2c1nc1c(N3CC4CC3C4)nc(-c3cnc(N)nc3)nc12 | 177
CCOc1cc(-c2nc(N3CCC(F)(F)C3)c3nc4n(c3n2)CCOC4(C)C)cnc1N | 558

Briefly, Ki measured for C[C@@H]1O[C@@H](C)Cn2c1nc1c(N3CC4CC3C4)nc(-c3cnc(N)nc3)nc12 : 261

Briefly, Ki measured for CC1(C)OCCn2c1nc1c(N3CC4CC3C4)nc(-c3cnc(N)c(C(F)(F)F)c3)nc12 [Example 90] : 5.98

Briefly, Ki measured for C[C@H]1Cn2c(nc3c(N4CC5CC4C5)nc(-c4cnc(N)nc4)nc32)[C@@H](C)O1 : 120

Briefly, Ki measured for CN(c1nc(-c2cnc(N)nc2)nc2c1nc1n2CCOC1(C)C)C1CCC1 : 87.7
